Known Inhibition of a selection of compounds
Tested on: HepG2
ASSAY_METHOD_TEXT: GSK_TCMDC: Percent inhibition of human HepG2 cell line. Test compounds present at 10uM.
Format: functional
Expressed in %, but write only the number.

Sample answers from the record:
| COMPOUND | UNITS | Inhibition |
| --- | --- | --- |
| Cl.O=C(/C=C/c1ccc(F)cc1)NC1CCC(CCN2CCCN(c3ccc(C(F)(F)F)cn3)CC2)CC1 (configuration not stated) | % | 29 |
| Cn1ccc(C(=O)Nc2ccc3c(c2)CN(Cc2ccc(N4CCCC4)o2)CCC3)n1.O=CO | % | 19 |
| Cc1ccc(C)c(NC(=O)Nc2ccc(Nc3nc(C)cc(N4CCOCC4)n3)cc2)c1 | % | 88 |
| O=C(Nc1cccc(C(F)(F)F)c1)c1cccc(S(=O)(=O)NCC2CCCN(Cc3ccccc3)C2)c1.O=C(O)C(F)(F)F (configuration not stated) | % | 17 |
| CCCC(C)c1ccc(N2C(N)=NC(N)=NC2(C)C)cc1.Cl (configuration not stated) | % | 51 |

Query :: Record request: Inhibition value, item O=C(Nc1cc(C(F)(F)F)cc(C(F)(F)F)c1)Nc1ccc(Cl)c(Cl)c1
Result :: 58

Query :: Record request: Inhibition value, item CNCCNCc1cccc(-c2ccc(-c3nc4ccccc4[nH]3)cc2)c1.O=C(O)C(F)(F)F
Result :: 13

###

Test system: Plasmodium falciparum
ASSAY_METHOD_TEXT: GSK_TCMDC: Inhibition of Plasmodium falciparum Dd2 in whole red blood cells, using parasite LDH activity as an index of growth. Test compounds present at 2uM
Assay type: functional
# Inhibition >= 70% gives Fulfilled, anything below gives Not fulfilled

Query :: Hi team, for FC(F)(F)c1cnc(Sc2nnc(-c3ccncc3)o2)c(Cl)c1 , is the recorded Inhibition at or above 70%?
Result :: Fulfilled

###

Test system: HepG2
ASSAY_METHOD_TEXT: GSK_TCMDC: Percent inhibition of human HepG2 cell line. Test compounds present at 10uM.
Format: functional
# Inhibition >= 9% gives True, anything below gives False

Use the examples below as a reference point.
| COMPOUND | CLASS |
| --- | --- |
| Fc1ccc(NC(S)=NN=Cc2ccccn2)cc1 | True |
| CN(C)C(S)=NN=Cc1cccc(O)c1O | True |
| COc1cc(COc2c(C)nc(N)nc2N)cc(OC)c1OC.Cl | False |

Next up:
Query :: Hi team, for COc1ccc2nccc(CCN3CC(O)C(CNCc4ccc5c(n4)NC(=O)CS5)C3)c2n1.Cl (stereo not given) , is the recorded Inhibition at or above 9%?
Result :: False

###

Test system: Plasmodium falciparum
ASSAY_METHOD_TEXT: GSK_TCMDC: Inhibition of Plasmodium falciparum Dd2 in whole red blood cells, using parasite LDH activity as an index of growth. Test compounds present at 2uM
Assay type: functional
Please use class 1 for Inhibition under 20% and class 0 for everything else, ties included.

| COMPOUND | CLASS |
| --- | --- |
| COc1ccc(C(=O)N2CCC3(CC2)C(=O)N(CC(=O)NCC2CCCCC2)CN3c2ccccc2)c(OC)c1 | class 0 |

Query :: Hello, I'm reviewing records and need to know if Inhibition of CCCc1cc(Cc2cnc(N)nc2N)cc2c1OC(C)C2C.Cl (stereo not given) is below 20%. Could you check?
Result :: class 1

Query :: Hello, I'm reviewing records and need to know if Inhibition of Fc1ccc2cc(C=Cc3ccncc3)[nH]c2c1 is below 20%. Could you check?
Result :: class 0

Query :: Hello, I'm reviewing records and need to know if Inhibition of COc1ccc(CNCc2ccc(F)cc2)cc1-c1ccc(S(=O)(=O)NCCN2CCCC2)cc1.O=C(O)C(F)(F)F is below 20%. Could you check?
Result :: class 0

###

Tested on: Plasmodium falciparum
ASSAY_METHOD_TEXT: GSK_TCMDC: Inhibition of Plasmodium falciparum 3D7 in whole red blood cells, using parasite LDH activity as an index of growth. Test compounds present at 2uM
Type: functional
Known Inhibition of a selection of compounds
Expressed in %, but write only the number.

Sample answers from the record:
| COMPOUND | SYSTEM_TESTED | Inhibition [%] |
| --- | --- | --- |
| COc1cccc(NC(=O)Nc2cc(-c3ccc4[nH]ncc4c3)cc3c2CNC3=O)c1 | Plasmodium falciparum | 98 |
| COc1ccc(-n2ccnc2)cc1CNC1CCN(CC2Cn3c(=O)ccc4ccc(F)c2c43)CC1.O=C(O)C(F)(F)F (stereo not given) | Plasmodium falciparum | 99 |
| CCCNCc1ccc(-c2ccc(CN(CCOC)C(=O)c3nn(-c4ccccc4)nc3C)cc2)nc1.O=C(O)C(F)(F)F | Plasmodium falciparum | 99 |
| CCNC(=O)N[C@@H]1CN[C@@H](C#Cc2cc3c(Nc4ccc(OCc5cccc(F)c5)c(Cl)c4)ncnc3s2)C1 | Plasmodium falciparum | 85 |
| CC(=O)Nc1ccc(C(=O)Nc2cccc(-c3ccc(-c4nc5cc(C(F)(F)F)ccc5[nH]4)cc3)c2)cn1 | Plasmodium falciparum | 100 |

Query :: Record request: Inhibition value, item Cc1cc(C)c2nc(N3CCC(C(=O)NCCCN4CCC(N5CCCCC5)CC4)CC3)sc2c1
Result :: 99

Query :: Record request: Inhibition value, item CSc1cccc(NC(=O)Nc2ccc(I)c(OCCN(C)C)c2)c1
Result :: 97

Query :: Record request: Inhibition value, item COc1ccc(-c2nc3c(NCc4ccccc4)nccc3[nH]2)c(OC)c1
Result :: 99

Query :: Record request: Inhibition value, item O=C(O)C(F)(F)F.c1ccc(CNCc2cccc(-c3ccc(-c4nc5ccccc5[nH]4)s3)c2)cc1
Result :: 95

Query :: Record request: Inhibition value, item Cc1cc(NC(=O)Nc2ccc3sccc3c2)c2ccccc2n1
Result :: 99

###

System: HepG2
ASSAY_METHOD_TEXT: GSK_TCMDC: Percent inhibition of human HepG2 cell line. Test compounds present at 10uM.
Type: functional
Please use y for Inhibition under 20% and n for everything else, ties included.

Use the examples below as a reference point.
| MOLECULE | CLASS |
| --- | --- |
| Clc1cc(Nc2ncnc3sc(C#Cc4ncc[nH]4)cc23)ccc1OCc1ccccn1 | y |
| O=C(Cc1ccsc1)NCC(c1ccccc1Cl)c1c[nH]c2ccccc12 (centres undefined) | y |
| Brc1ccc(Nc2nc(NCc3ccccc3)c3ccccc3n2)cc1 | n |
| O=C(NCCCCN1CCN(c2cccc(Cl)c2Cl)CC1)c1ccc2c(c1)CCN(C1CCC1)CC2 | n |
| N#Cc1cccc(C(=O)Nc2ccc(-c3cccc(CN4CCCC4)c3)cc2)c1.O=C(O)C(F)(F)F | y |

Query :: Hello, I'm reviewing records and need to know if Inhibition of Cc1cccc2nc(-c3ccc(-c4ccc(CNCCCNS(C)(=O)=O)cc4)s3)[nH]c12.O=C(O)C(F)(F)F is below 20%. Could you check?
Result :: y

Query :: Hello, I'm reviewing records and need to know if Inhibition of CC(C)CCNc1nc(NCCCc2ccccc2)c2cc(O)ccc2n1 is below 20%. Could you check?
Result :: y

Query :: Hello, I'm reviewing records and need to know if Inhibition of O=C(/C=C/c1cccc2c1OCO2)Nc1ccnc2ccncc12 is below 20%. Could you check?
Result :: y

Query :: Hello, I'm reviewing records and need to know if Inhibition of O=C(O)C(F)(F)F.O=S(=O)(NCCN1CCCC1)c1ccc(-c2ccc(CNC3Cc4ccccc4C3)cc2)cc1F is below 20%. Could you check?
Result :: n

###

System: HepG2
ASSAY_METHOD_TEXT: GSK_TCMDC: Percent inhibition of human HepG2 cell line. Test compounds present at 10uM.
Assay type: functional
Known Inhibition of a selection of molecules

Sample answers from the record:
| MOLECULE | SYSTEM_TESTED | Inhibition |
| --- | --- | --- |
| COc1cc(C(F)(F)F)cc2[nH]c(CNCCCNc3nc4ccccc4[nH]3)cc12 | HepG2 | 59% |
| OC(c1cccc2ccccc12)C1CN(CCc2ccccc2)CCC1(O)c1ccccc1 (stereo not drawn) | HepG2 | 0% |
| Cc1ccc(O)cc1C[C@@H]1C(=O)CC[C@@]2(C)[C@H]1CC[C@]2(C)O | HepG2 | 4% |

Query :: Record request: Inhibition value, item O=C(Nc1ccc(SC(F)(F)F)cc1)Nc1ccc(Cl)c(Cl)c1
Result :: 15%

Query :: Record request: Inhibition value, item CC(CC1CCCCC1)NCc1ccccc1OCCC(=O)N1CCCC1C(N)=O (stereo not drawn)
Result :: 5%

Query :: Record request: Inhibition value, item CN1CCN(c2ccnc3ccc(NC(=O)Cc4cccc(Cl)c4Cl)cc23)CC1
Result :: 8%

###

System: Plasmodium falciparum
ASSAY_METHOD_TEXT: GSK_TCMDC: Inhibition of Plasmodium falciparum 3D7 in whole red blood cells, using parasite LDH activity as an index of growth. Test compounds present at 2uM
Format: functional
Known Inhibition of a selection of compounds

| COMPOUND | Inhibition |
| --- | --- |
| COc1ccc(-c2ccc(NC(=O)c3ccc(C#N)cc3)c(F)c2)cc1CN(C)CCN(C)C.O=C(O)C(F)(F)F | 88% |
| COc1ccc(N2CCN(CCCCNC(=O)c3ccc(NC(=O)c4ccc(C(F)(F)F)cc4)cc3)CC2)c(OC)c1 | 100% |
| Cc1cccc2nc(-c3ccc(-c4cccc(CN5CCCC(N)C5)c4)s3)[nH]c12.O=C(O)C(F)(F)F (configuration not stated) | 100% |

Query :: Record request: Inhibition value, item CCCCCNc1ccnc2cc(Cl)ccc12
Result :: 97%

Query :: Record request: Inhibition value, item N#Cc1cccc(NC(=O)C2=C(CCc3ccc4c(c3)OCO4)NC(=O)NC2c2cccc(C#N)c2)c1 (configuration not stated)
Result :: 96%

Query :: Record request: Inhibition value, item COCCCn1c(=N)c(C(=O)NCCc2ccc(OC)cc2)cc2c(=O)n3cccc(C)c3nc21
Result :: 95%

Query :: Record request: Inhibition value, item CCCCCCN1CCCN(Cc2cccc(C(=O)Nc3ccc(C(C)(C)C)cc3)c2)CC1.O=C(O)C(F)(F)F
Result :: 93%

Query :: Record request: Inhibition value, item O=C(Nc1ccc(OC2CCN(Cc3ccsc3)C2)c(Cl)c1)c1cccs1.O=C(O)C(F)(F)F (configuration not stated)
Result :: 91%

Query :: Record request: Inhibition value, item CC(C)N1CCC(N(Cc2ccc(-c3ccc(C(F)(F)F)cc3)cc2)C(=O)Cn2c(SCc3cccc(F)c3F)cc(=O)c3ccccc32)CC1.O=C(O)C(O)C(O)C(=O)O
Result :: 100%

Query :: Record request: Inhibition value, item O=C(Nc1nccs1)c1sc2ccccc2c1O
Result :: 96%

Query :: Record request: Inhibition value, item O=C(c1ccco1)N1CCN(c2ccc([N+](=O)[O-])c(NC3CC3)c2)CC1
Result :: 100%

Query :: Record request: Inhibition value, item O=C(/C=C/c1ccc(Cl)c(Cl)c1)NCCCCCN1CCC(NC(=O)Nc2ccc3c(c2)OCO3)CC1
Result :: 100%

Values from ChEMBL document CHEMBL1157539
